TARGET OF ASSAY: GLS1 (purified recombinant human GAC) (Homo sapiens, UniProt O94925)
Sequence (O94925 55-598 isoform O94925-3 limits assumed): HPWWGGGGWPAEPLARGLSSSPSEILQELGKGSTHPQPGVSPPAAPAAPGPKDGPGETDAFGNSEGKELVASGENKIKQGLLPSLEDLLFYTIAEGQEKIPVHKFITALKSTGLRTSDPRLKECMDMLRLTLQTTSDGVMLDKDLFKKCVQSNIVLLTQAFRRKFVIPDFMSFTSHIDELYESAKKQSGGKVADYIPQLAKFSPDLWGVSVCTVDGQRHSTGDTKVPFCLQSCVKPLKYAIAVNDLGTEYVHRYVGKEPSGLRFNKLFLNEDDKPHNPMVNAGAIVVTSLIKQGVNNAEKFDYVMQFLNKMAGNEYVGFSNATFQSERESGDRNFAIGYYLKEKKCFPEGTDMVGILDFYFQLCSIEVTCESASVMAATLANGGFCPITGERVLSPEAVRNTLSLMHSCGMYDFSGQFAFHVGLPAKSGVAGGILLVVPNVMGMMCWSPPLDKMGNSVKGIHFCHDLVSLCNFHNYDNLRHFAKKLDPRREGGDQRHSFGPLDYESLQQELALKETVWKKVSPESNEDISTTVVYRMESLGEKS
ASSAY METHOD TEXT: GLS1 enzymatic activity assay (dual-coupled, Amplex UltraRed/resorufin)
Assay type: biochemical
Give IC50 for every item shown.

compound NC(=O)c1cn(CC(F)CCn2ccc(NC(=O)CC3CCC3)c(F)c2=O)nn1 (stereo not shown) , IC50 observed: 500 to 5000 nM

Noted for C[C@H](C(=O)Nc1ccn(CCC(F)Cn2cc(C(=O)NCc3cncc(C(F)(F)F)c3)nn2)c(=O)c1F)c1ccccc1 (stereo partly shown) : its IC50 reads < 100 nM

// O=C(Cc1ccccn1)Nc1nnc(CCCCn2ccc(NC(=O)CC3CCCC3)c(F)c2=O)s1 : IC50 value = < 100 nM

Data point: O=C(Cc1cccc(OC(F)(F)F)c1)Nc1ccc(CCCCn2ccc(NC(=O)CC3CCCCC3)nc2=O)nn1 ; IC50 = < 100 nM
